Assay: Clearance from in vitro human microsomes
Format: in vitro ADME
Conditions: read-out: clearance rate from in vitro human microsomes
reported-metric: microsomal CLint

Give reported microsomal CLint value for CC(C)COc1ccc(CNC(=O)N(Cc2ccc(F)cc2)C2CCN(C)CC2)cc1
< 10 µL/min/mg

* * *

Assay: Half-life upon oral administration to humans
Conditions: human, in vivo
reported-metric: half-life

// Input: CC(C)COc1ccc(CNC(=O)N(Cc2ccc(F)cc2)C2CCN(C)CC2)cc1 [Pimavanserin] . Output its half-life only.
~55 h

Reference for the values: patent US20090082388A1
